B1: DLC1 (parent)
chain: AEVVKIRDSFSNQNTETKDTKSR

variants of: B1; assay: protein stability index of a GFP-peptide fusion (GPS, HEK-293T) (PSI 1-6); higher = more stable; details: c terminus: native;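 further: lentivirally expressed fusions sorted by FACS into six bins by GFP to DsRed ratio, PSI derived from sequencing read proportions per bin multiplied by bin number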
Below is a list of entries, each paired with its recorded protein stability index value.
No unit in the answer, please; the number alone is enough.

Recorded results for 5 variants are shown here.
AEVVKIRDSFSNQNTETKDTKVR [S22V] ... 2.98
AEVVKIRDSFSNQNTETKDTKSL [R23L] ... 5.49
AEVVKIRDSFSNQNTETKDDKSR [T20D] ... 2.23
KEVVKIRDSFSNQNTETKDTKSR [A1K] ... 3.16
AEVVKIRDSFSNQNTETKDVKSR [T20V] ... 2.61

Query: So what's the measured protein stability index for this one? AEVVKIRDSFSNQNTECKDTKSR [T17C]
Response: 2.11

Query: So what's the measured protein stability index for this one? AEVVKIRDKFSNQNTETKDTKSR [S9K]
Response: 2.32

Query: So what's the measured protein stability index for this one? AEVVKIRDSFYNQNTETKDTKSR [S11Y]
Response: 2.65

Query: So what's the measured protein stability index for this one? AEVVKIRDSFSNQNTETKDTSSR [K21S]
Response: 5.01

Query: So what's the measured protein stability index for this one? AEVVKIKDSFSNQNTETKDTKSR [R7K]
Response: 2.88

Query: So what's the measured protein stability index for this one? AEVGKIRDSFSNQNTETKDTKSR [V4G]
Response: 2.01

Query: So what's the measured protein stability index for this one? AEVVKIRDSFSNQNTEQKDTKSR [T17Q]
Response: 2.61

Query: So what's the measured protein stability index for this one? AEVVKIRDSFSNQNTENKDTKSR [T17N]
Response: 1.86

Query: So what's the measured protein stability index for this one? AEVVKIRDSFSPQNTETKDTKSR [N12P]
Response: 1.95

Query: So what's the measured protein stability index for this one? AEVVYIRDSFSNQNTETKDTKSR [K5Y]
Response: 2.13
